- system.under.test: Cft1;Pfs2;Yth1;Fip1;Pap1 (Saccharomyces cerevisiae;Saccharomyces …, UniProt Q06632;P42841;Q06102;P45976;P29468 1-1357;1-465;1-208;1-327;1-568, ||||)
- measurement.protocol: EMSA; CPFpol; EMSA: 50 nM RNA, 0.25-4.0 uM protein, protein diluted in 10 mM HEPES pH 7.9, 150 mM NaCl, 0.5 mM Mg(OAc)2, plus 1x loading dye (orange G, glycerol, EDTA); 30 min on ice; native 6% acrylamide/TBE PAGE
- study.conditions: protein: recombinant;recombinant;recombinant;recombinant;recombinant; tags: ;3C-SII;3C-8H; untagged in CPFpol+Cft2;;SII (Pap1-SII) when alone; untagged in CPFpol and CPFcore; copies: 1;2;1;1;1; label: 5'-FAM
outcome.measure: binding result

• CCCCCCCCCCCCCCC (ssRNA) [C15] = no binding
• AAAAAAAAAAAAAAA (ssRNA) [A15] = binds
• AAGAACGUUAUUUAUAUUUCAAAUUUUUCUUUUUU (ssRNA) [CYC1d EMSA probe] = binds
• UUUUUUUUUUUUUUU (ssRNA) [U15] = no binding
• GGGGGGGGGGGGGGG (ssRNA) [G15] = binds

Data provenance: paper PMC6436931
